Test system: HeLa Kyoto;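 note: synchronized HeLa Kyoto cells, proteins quantified by TMT10plex mass spectrometry, three biological replicates, mitosis taken 0.5 h after nocodazole release, G1/S directly after double thymidine block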
Assay: thermal stability score vs G1/S (z-score of summed log2 fold changes over temperatures); higher = more thermally stable than in G1/S
Settings: cell cycle stage: early G1 (4.5 h after nocodazole release)
metricName: thermal stability score
Keep the answer to the number alone.

thermal stability score for MADAAPQLGKRKRELDVEEAHAASTEEKEAGVGNGTCAPVRLPFSGFRLQKVLRESARDKIIFLHGKVNEASGDGDGEDAVVILEKTPFQVEQVAQLLTGSPELQLQFSNDIYSTYHLFPPRQLNDVKTTVVYPATEKHLQKYLRQDLRLIRETGDDYRNITLPHLESQSLSIQWVYNILDKKAEADRIVFENPDPSDGFVLIPDLKWNQQQLDDLYLIAICHRRGIRSLRDLTPEHLPLLRNILHQGQEAILQRYRMKGDHLRVYLHYLPSYYHLHVHFTALGFEAPGSGVERAHLLAEVIENLECDPRHYQQRTLTFALRADDPLLKLLQEAQQS [DCPS] ?
-0.562

Dear colleague, I am looking for the recorded thermal stability score of the following substance: MEALPLLAATTPDHGRHRRLLLLPLLLFLLPAGAVQGWETEERPRTREEECHFYAGGQVYPGEASRVSVADHSLHLSKAKISKPAPYWEGTAVIDGEFKELKLTDYRGKYLVFFFYPLDFTFVCPTEIIAFGDRLEEFRSINTEVVACSVDSQFTHLAWINTPRRQGGLGPIRIPLLSDLTHQISKDYGVYLEDSGHTLRGLFIIDDKGILRQITLNDLPVGRSVDETLRLVQAFQYTDKHGEVCPAGWKPGSETIIPDPAGKLKYFDKLN [PRDX4]
-1.92

Name the reported thermal stability score value associated with the substance ARFGEF1
0.51
